- measurement protocol: Thermodynamic solubility in USP simulated gastric fluid at pH 1.2 by reversed phase HPLC
- Type: physicochemical
- condition notes: simulated gi fluid
Where Thermodynamic solubility equals or exceeds 9 ugA/ml, the correct label is 1; where it does not, the label is 0.

| smiles data | answer label |
| --- | --- |
| Clc1ccc(-n2c(-c3ccc(Cl)cc3Cl)nc3c(NC4CCCCC4)ncnc32)cc1 | 0 |
| CN1CCN(c2ncnc3c2nc(-c2ccccc2Cl)n3-c2ccc(Cl)cc2)CC1 | 1 |
| CN1CCN(c2ncnc3c2nc(-c2ccc(Cl)cc2Cl)n3-c2ccc(Cl)cc2)CC1 | 1 |
| Clc1ccc(-n2c(-c3ccc(Cl)cc3Cl)nc3c(N4CCCCC4)ncnc32)cc1 | 0 |
| Clc1ccc(-n2c(-c3ccc(Cl)cc3Cl)nc3c(NN4CCCCC4)ncnc32)cc1 | 1 |

Now consider a different molecule.
Problem: Say whether CCNC1(C(N)=O)CCN(c2ncnc3c2nc(-c2ccccc2Cl)n3-c2ccc(Cl)cc2)CC1 shows Thermodynamic solubility of 9 ugA/ml or more.
Result: 1
